ASSAYED TARGET: PDE4Bcat (Homo sapiens)
EXPERIMENTAL PROTOCOL: Phosphodiesterase inhibitory activity, PDE4 ([3H]cAMP, recombinant enzyme)
STUDY CONDITIONS: 30° C., 20 minutes, read-out: IC50(μmol/L) PDE4
PARAMETER: IC50

Looking up COc1ccc(-c2ccc(=O)n(CCCCOc3ccc(C4=NNC(=O)CC4)c(F)c3F)n2)c2cc(C(F)(F)F)oc12 , I see its IC50 listed as < 0.1 µmol/L

Looking up COc1ccc(C2=NN(CCCCOc3ccc(C4=NNC(=O)CC4C)cc3)C(=O)CC2C)c2sc(C(F)(F)F)nc12 (stereo not shown) , I see its IC50 listed as < 0.1 µmol/L

Looking up CCc1ccc2c(-c3ccc(=O)n(CCCCOc4ccc(C5=NNC(=O)CC5)cc4)n3)ccc(OC)c2n1 , I see its IC50 listed as 0.1 to 1 µmol/L

Looking up COc1ccc(-c2ccc(=O)n(CCCCOc3ccc(C4=NNC(=O)C4(C)C)c(F)c3F)n2)c2nc(C(F)(F)F)nn12 , I see its IC50 listed as 1 to 10 µmol/L

Looking up COc1ccc(-c2ccc(=O)n(CCCCOc3ccc(C4=NNC(=O)CC4C)c(F)c3F)n2)c2cccnc12 (stereo not shown) , I see its IC50 listed as 0.1 to 1 µmol/L

Looking up CCc1ccc2c(-c3ccc(=O)n(CCCCOc4ccc(C5=NNC(=O)C5(C)C)c(F)c4F)n3)ccc(OC)c2n1 , I see its IC50 listed as < 0.1 µmol/L

Looking up CCc1ccc2c(C3=NN(CCCCOc4ccc(C5=NNC(=O)CC5C)cc4F)C(=O)CC3C)ccc(OC)c2n1 (stereo not shown) , I see its IC50 listed as < 0.1 µmol/L

* * *

ASSAYED TARGET: PDE3A catalytic domain (PDE3Acat) (Homo sapiens, UniProt Q14432)
Sequence (Q14432 674-1093 limits assumed): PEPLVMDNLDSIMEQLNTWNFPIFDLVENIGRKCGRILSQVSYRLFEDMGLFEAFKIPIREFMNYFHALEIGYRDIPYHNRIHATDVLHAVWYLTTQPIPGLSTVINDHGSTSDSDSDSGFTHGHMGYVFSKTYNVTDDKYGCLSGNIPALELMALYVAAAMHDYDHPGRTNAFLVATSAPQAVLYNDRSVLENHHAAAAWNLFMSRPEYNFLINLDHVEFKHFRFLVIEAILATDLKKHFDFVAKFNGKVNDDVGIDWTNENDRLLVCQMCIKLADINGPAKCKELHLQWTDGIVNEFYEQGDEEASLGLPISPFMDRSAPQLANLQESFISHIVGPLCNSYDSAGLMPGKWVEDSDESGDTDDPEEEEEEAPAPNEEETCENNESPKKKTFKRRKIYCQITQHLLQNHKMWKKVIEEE
EXPERIMENTAL PROTOCOL: Phosphodiesterase inhibitory activity, PDE3 ([3H]cAMP, recombinant enzyme)
STUDY CONDITIONS: 30° C., 20 minutes, read-out: IC50(μmol/L) PDE3
PARAMETER: IC50

Looking up COc1ccc(-c2ccc(=O)n(CCCCOc3ccc(C4=NNC(=O)CC4)c(F)c3F)n2)c2cc(C(F)(F)F)sc12 [Example 331] , I see its IC50 listed as < 0.1 µmol/L

Looking up CCc1ccc2c(-c3ccc(=O)n(CCCOc4ccc(C5=NNC(=O)CC5)c(F)c4F)n3)ccc(OC)c2n1 [Example 326] , I see its IC50 listed as 1 to 10 µmol/L

Looking up CCc1ccc2c(C3=NN(CCCOc4ccc(C5=NNC(=O)CC5C)cc4)C(=O)CC3C)ccc(OC)c2n1 (stereo not shown) [Example 292] , I see its IC50 listed as 1 to 10 µmol/L

Looking up CCc1ccc2c(-c3ccc(=O)n(CCCCOc4ccc(C5=NNC(=O)CC5C)cc4)n3)ccc(OC)c2n1 (stereo not shown) [Example 280] , I see its IC50 listed as < 0.1 µmol/L

Looking up CCc1ccc2c(-c3ccc(=O)n(CCCCOc4ccc(C5=NNC(=O)C5(C)C)cc4)n3)ccc(OC)c2n1 [Example 282] , I see its IC50 listed as ≥ 10 µmol/L

Looking up CCc1ccc2c(C3=NN(CCCCOc4ccc(C5=NNC(=O)CC5C)cc4)C(=O)CC3C)ccc(OC)c2n1 (single isomer, unassigned) [Example 340] , I see its IC50 listed as < 0.1 µmol/L

Looking up CCc1ccc2c(-c3ccc(=O)n(CCOc4ccc(C5=NNC(=O)CC5C)c(F)c4F)n3)ccc(OC)c2n1 (stereo not shown) [Example 324] , I see its IC50 listed as < 0.1 µmol/L

* * *

For each record, write down the corresponding IC50.
ASSAYED TARGET: PDE4Bcat (Homo sapiens, UniProt Q07343)
Sequence (Q07343 330-659 limits assumed): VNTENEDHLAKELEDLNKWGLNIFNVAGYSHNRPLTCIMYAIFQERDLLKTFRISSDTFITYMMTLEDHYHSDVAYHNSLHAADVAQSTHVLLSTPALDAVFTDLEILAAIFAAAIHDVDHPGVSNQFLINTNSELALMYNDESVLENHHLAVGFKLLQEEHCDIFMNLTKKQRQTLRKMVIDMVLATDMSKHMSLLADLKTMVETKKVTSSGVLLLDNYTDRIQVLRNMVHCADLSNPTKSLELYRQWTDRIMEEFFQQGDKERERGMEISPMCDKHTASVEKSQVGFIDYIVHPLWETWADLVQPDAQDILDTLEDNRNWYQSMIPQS
EXPERIMENTAL PROTOCOL: Phosphodiesterase inhibitory activity, PDE4 ([3H]cAMP, recombinant enzyme)
STUDY CONDITIONS: 30° C., 20 minutes, read-out: IC50(μmol/L) PDE4

Looking up CCc1ccc2c(C3=NN(CCOc4ccc(C5=NNC(=O)CC5C)cc4)C(=O)CC3C)ccc(OC)c2n1 (stereo not shown) , I see its IC50 listed as < 0.1 µmol/L

Looking up COc1ccc(-c2ccc(=O)n(CCCCOc3ccc(C4=NNC(=O)C4(C)C)c(F)c3F)n2)c2sc(C(F)(F)F)nc12 , I see its IC50 listed as < 0.1 µmol/L

Looking up CCc1ccc2c(-c3ccc(=O)n(CCCCOc4ccc(C5=NNC(=O)CC5C)c(F)c4F)n3)ccc(OC)c2n1 (single isomer, unassigned; (-)) [Example 323] , I see its IC50 listed as < 0.1 µmol/L

Looking up COc1ccc(-c2ccc(=O)n(CCCCOc3ccc(C4=NNC(=O)CC4)c(F)c3F)n2)c2nc(C(F)(F)F)[nH]c12 , I see its IC50 listed as 1 to 10 µmol/L

Looking up COc1ccc(-c2ccc(=O)n(CCCCOc3ccc(C4=NNC(=O)CC4C)c(F)c3F)n2)c2cc(C(F)(F)F)sc12 (stereo not shown) , I see its IC50 listed as 1 to 10 µmol/L

Looking up COc1ccc(-c2ccc(=O)n(CCCCOc3ccc(C4=NNC(=O)CC4)c(F)c3F)n2)c2sc(C(F)(F)F)nc12 , I see its IC50 listed as < 0.1 µmol/L

Looking up COc1ccc(-c2ccc(=O)n(CCCCOc3ccc(C4=NNC(=O)CC4)cc3F)n2)c2ccc(C)nc12 , I see its IC50 listed as < 0.1 µmol/L

* * *

ASSAYED TARGET: PDE4Bcat (Homo sapiens, UniProt Q07343)
EXPERIMENTAL PROTOCOL: Phosphodiesterase inhibitory activity, PDE4 ([3H]cAMP, recombinant enzyme)
STUDY CONDITIONS: 30° C., 20 minutes, read-out: IC50(μmol/L) PDE4
pIC50: −log10 of the molar value.
For each record, write down the corresponding pIC50.

Looking up CCc1ccc2c(-c3ccc(=O)n(CCCCOc4ccc(C5=NNC(=O)C5(C)C)cc4F)n3)ccc(OC)c2n1 , I see its pIC50 listed as 5.00 to 6.00

Looking up COc1ccc(C2=NN(CCCCOc3ccc(C4=NNC(=O)CC4C)cc3)C(=O)CC2C)c2cc(C(F)(F)F)sc12 (centres unmarked) , I see its pIC50 listed as 5.00 to 6.00

Looking up CCc1nc2c(OC)ccc(-c3ccc(=O)n(CCCCOc4ccc(C5=NNC(=O)C5(C)C)c(F)c4F)n3)c2o1 , I see its pIC50 listed as 6.00 to 7.00

Looking up CCc1nc2c(OC)ccc(-c3ccc(=O)n(CCCCOc4ccc(C5=NNC(=O)CC5)c(F)c4F)n3)c2o1 , I see its pIC50 listed as 6.00 to 7.00

Looking up CCc1ccc2c(-c3ccc(=O)n(CCCOc4ccc(C5=NNC(=O)C5(C)C)c(F)c4F)n3)ccc(OC)c2n1 , I see its pIC50 listed as 6.00 to 7.00

Looking up CCc1ccc2c(C3=NN(CCCCOc4ccc(C5=NNC(=O)C5(C)C)c(F)c4F)C(=O)CC3C)ccc(OC)c2n1 (centres unmarked) , I see its pIC50 listed as > 7.00

Looking up COc1ccc(-c2ccc(=O)n(CCCCOc3ccc(C4=NNC(=O)CC4)c(F)c3F)n2)c2cccnc12 , I see its pIC50 listed as > 7.00

Looking up CCc1ccc2c(C3=NN(CCCCOc4ccc(C5=NNC(=O)CC5C)cc4)C(=O)CC3C)ccc(OC)c2n1 (single isomer, unassigned) [Example 342] , I see its pIC50 listed as 6.00 to 7.00
